- System: Vaccinia virus
- ASSAY_PROCEDURE: Antiviral activity against Vaccinia virus Lederle infected in HEL cells assessed as inhibition of virus-induced cytopathicity
- Format: functional, organism-based
- COND: Orthopoxvirus vaccinia
pEC50: −log10 of the molar value.
Listed next: entries and their corresponding pEC50.

- COC(=O)[C@@H](NP(=O)(Oc1ccccc1)O[C@@H]1O[C@H](CO)[C@@H](O)C1(F)F)C(C)C (mixture of isomers): < 4.70
- COC(=O)[C@H](C)NP(=O)(Oc1ccccc1)O[C@@H]1O[C@H](CO)[C@@H](O)C1(F)F (mixture of isomers): < 4.70

Then there is this compound:
// recorded pEC50 for COC(=O)[C@@H](NP(=O)(Oc1cccc2ccccc12)O[C@H]1O[C@H](CO)[C@@H](O)C1(F)F)C(C)C (mixture of isomers) : < 4.70
